Every entry's value here was drawn from PubChem BioAssay (NCATS).

Test target: Cytochrome P450 3A7 (Homo sapiens)
Assay procedure: Cytochrome P450 family 3 subfamily A member 7 (CYP3A7) small molecule antagonists: luciferase biochemical qHTS assay (AID 1963596); also: nearly all actives have a fitted effect of over 40% in size
Condition label: P450-Glo CYP3A7 enzyme luminescence, 1 h; series mostly up to 57.4 µM
Results filed as inconclusive are left out. Activity calls are given as the source filed them. Calls follow the shape of the dose curve; as a rule, active = well fitted inhibition curve with a large enough effect; inconclusive = small, poorly fitted or top-dose-only effect; inactive = no such curve, though single readings can be large or run the other way.
Measure name: outcome

Field: example entries. Status: answers known.
# Molecule, outcome
data = [
    ("O=C(O)c1cccc(-c2ccc(-c3cn(C(=O)N4CCCCC4Cc4ccccc4)nn3)cc2)c1 (stereo not given)", "inactive"),
    ("CO[C@@H]1COCC[C@@H]1N[C@@H]1CC[C@@](C(=O)N2CCc3ncc(C(F)(F)F)cc3C2)(C(C)C)C1", "inactive"),
    ("CC1(c2nc3c(C(N)=O)cccc3[nH]2)CCCN1 (stereo not given)", "inactive"),
    ("CC(=O)CCCCn1c(=O)c2c(ncn2C)n(C)c1=O", "inactive"),
]

Report outcome for every entry below.
1. Cc1nc2ccc(CN(C)c3ccc(C(=O)N[C@@H](CCC(=O)O)C(=O)O)s3)cc2c(=O)[nH]1
2. NC(=O)c1cn(Cc2c(F)cccc2F)nn1
3. O=C(O)Cc1ccc2oc(-c3ccc(NC(=O)/C=C/c4ccc(Br)cc4)c(F)c3)nc2c1
4. COc1cccc(NC[C@@H](O)Cn2c3ccc(Br)cc3c3cc(Br)ccc32)c1

### Response
["inactive", "inactive", "inactive", "inactive"]

Report outcome for every entry below.
1. NC(=O)C(CCC(F)(F)F)N(Cc1ccc(-c2ncon2)cc1F)S(=O)(=O)c1ccc(Cl)cc1 (stereo not given)
2. CCN1CCCC1CN (stereo not given)

### Response
1: inactive; 2: inactive
